// endpoint pIC50 / system MMP-13 catalytic domain (MMP-13CD) (Homo sapiens)
pIC50: −log10 of the molar value.
reportedEndpoint: pIC50

[[record]]
compound = "COc1cccc(CC(=O)Nc2cc3c(=O)n(Cc4ccc(C(=O)O)cc4)cnc3cc2F)c1 [A2]"
reportedendpoint = "pIC50"
value = 7.28

[[record]]
compound = "O=C(Cc1cccc(F)c1)Nc1ccc2ncn(Cc3ccc(C(=O)O)cc3)c(=O)c2c1 [A5]"
reportedendpoint = "pIC50"
value = 6.60

[[record]]
compound = "O=C(Cc1ccc(F)cc1)Nc1ccc2ccn(Cc3ccc(C(=O)O)cc3)c(=O)c2c1 [B4]"
reportedendpoint = "pIC50"
value = 7.32

[[record]]
compound = "O=C(Cc1ccc(O)cc1)Nc1cc2c(=O)n(Cc3ccc(C(=O)O)cc3)cnc2cc1F [A8]"
reportedendpoint = "pIC50"
value = 7.68

[[record]]
compound = "COc1ccc(CC(=O)Nc2ccc3ccn(Cc4ccc(C(=O)O)cc4)c(=O)c3c2)cc1 [B2]"
reportedendpoint = "pIC50"
value = 7.89

[[record]]
compound = "COc1ccc(CC(=O)Nc2cc3c(=O)n(Cc4ccc(C(=O)O)cc4)cnc3cc2F)cc1 [A6]"
reportedendpoint = "pIC50"
value = 8.28


* * *

Test system MMP-9FL (full length Gelatinase B) (Homo sapiens, UniProt P14780), pIC50 listed for each of the compounds.
pIC50: −log10 of the molar value.
reportedEndpoint: pIC50

[[record]]
compound = "O=C(Cc1ccc(F)cc1)Nc1ccc2ccn(Cc3ccc(C(=O)O)cc3)c(=O)c2c1 [B4]"
value = "< 4.52"

[[record]]
compound = "COc1cccc(CC(=O)Nc2ccc3ncn(Cc4ccc(C(=O)O)cc4)c(=O)c3c2)c1 [Compound Example A1]"
value = "< 4.52"

[[record]]
compound = "O=C(Cc1cccc(F)c1)Nc1ccc2ccn(Cc3ccc(C(=O)O)cc3)c(=O)c2c1 [B3]"
value = "< 4.52"


* * *

Target: MMP-14CD (catalytic domain of MMP-14) (Homo sapiens, UniProt P50281)
The reader will find reported IC50 values listed item by item below.
reportedEndpoint: IC50

[[record]]
smilesstr = "COc1cccc(CC(=O)Nc2cc3c(=O)n(Cc4ccc(C(=O)O)cc4)cnc3cc2F)c1"
value = "> 100 µM"

[[record]]
smilesstr = "O=C(Cc1cccc(F)c1)Nc1ccc2ccn(Cc3ccc(C(=O)O)cc3)c(=O)c2c1"
value = "> 30 µM"

[[record]]
smilesstr = "O=C(Cc1ccc(F)cc1)Nc1ccc2ccn(Cc3ccc(C(=O)O)cc3)c(=O)c2c1"
value = "> 30 µM"

[[record]]
smilesstr = "O=C(Cc1cccc(F)c1)Nc1ccc2ncn(Cc3ccc(C(=O)O)cc3)c(=O)c2c1"
value = "> 30 µM"


* * *

Target: UniProt P09237
Sequence (P09237 95-267): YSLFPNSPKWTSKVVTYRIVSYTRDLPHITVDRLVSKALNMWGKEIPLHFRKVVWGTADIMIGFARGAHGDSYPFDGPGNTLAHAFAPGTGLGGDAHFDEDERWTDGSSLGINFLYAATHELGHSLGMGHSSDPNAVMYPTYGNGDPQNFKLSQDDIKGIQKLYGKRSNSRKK
reportedEndpoint: IC50

[[record]]
smilesstr = "O=C(Cc1cccc(F)c1)Nc1ccc2ncn(Cc3ccc(C(=O)O)cc3)c(=O)c2c1"
targetdesc = "UniProt P09237"
value = "> 100 µM"

[[record]]
smilesstr = "COc1cccc(CC(=O)Nc2cc3c(=O)n(Cc4ccc(C(=O)O)cc4)cnc3cc2F)c1"
targetdesc = "UniProt P09237"
value = "> 100 µM"

[[record]]
smilesstr = "O=C(Cc1ccc(F)cc1)Nc1ccc2ncn(Cc3ccc(C(=O)O)cc3)c(=O)c2c1"
targetdesc = "UniProt P09237"
value = "> 100 µM"

